- system-name: Gn of RVFV-SA51 (Rift Valley Fever Virus strain SA51)
- measurement-description: cell-based or functional assay
observed-property: IC50 (ng/ml), neutralization of RVFV-SA51 (ng/mL)

- binder: "RVFV-381 (antibody, V domains shown) VH: QEQLVESGGGVVQPGRSLRLSCAASGFTLRGYGIYWVRQAPGKGLEWVAVISHDGKNESYTDSVKGRFSISRDKSKNTVFLQMNSLTTQDTSVYYCARWTEGSEEFYYHGLDVWGQGTTVTVSP VL: SYELTQPPSVSVSPGQTARITCSGHLLPKQYAYWYQQKPGQAPTLVIYADYNRASGIPERFSGASSGTTVTLTITGVKAEDQADYYCQSIDNRFHYPMIFGGGTKLTVL"
  units-label: "ng/mL"
  val: 10000
- binder: "RVFV-426 (antibody, V domains shown) VH: QVQLQESGPGLLKPSQTLSLTCGVSGDSITSTGDSWTWIRQPPGKGLEWIGYIYYSGSAYYNPSLKSRVTISVDTSKNQFSLRLRSVTAADTAVYYCARALEYGAGSWAAAFWGQGILVTVSS VL: SYEVTQPPSVSVSPGQTASITCSGDKLVERYVSWYQQKPGQSPLLVIYHDIKRPSGIPERFSGSNSGNTATLTISGTQPMDEADYYCQAWDSSTVLFGGGTKLTVL"
  units-label: "ng/mL"
  val: 120
- binder: "RVFV-401 (antibody, V domains shown) VH: QITFKESGPTLVKPTQTLTLTCTFSGFSLSTSGVGVGWIRQPPGKALEWLALLYWNDDKRYTPSLRSRLTITKDTSKNQVVLTMTDMDPVDTATYYCARKPRDDFLRLTMMGGGDYFDYWGQGTLVTVSS VL: SYELTQPPSVSVSPGQTARITCSGDALPDQYAYWYQQKPGQAPVLVLYKDNERPSGIPERFSGSTSGTTVTLTISGVQAEDEADYYCQSADTSTAYHVIFGGGTKLTVL"
  units-label: "ng/mL"
  val: 1110
